compounds and their reported growth
- Test system: A498 renal
- ASSAY_DETAILS: NCI-60 one-dose screen, 48 h (100 = growth as untreated, 0 = no growth, -100 = all killed)
- CONDITION_PARAMETERS: 10 µM
Compounds without any hit were thinned out: in the full panel of roughly 83,000, 20% have a hit.
REPORTED_ENDPOINT: growth (%)

compound=O=C1c2ccccc2C(=O)c2c1ccc(C(=O)O)c2[N+](=O)[O-] unit_abbrev=% reading=84
compound=N=c1c(C(=O)OCc2ccccc2)ncc(CCl)n1O unit_abbrev=% reading=103
compound="CCCCCCCCCCC1CO1 (stereo not given)" unit_abbrev=% reading=108
compound=COc1cccc(COC(=O)Nc2ccccc2)c1OC unit_abbrev=% reading=105
compound=CCCCN(CCCC)CCCO unit_abbrev=% reading=114
